assay: Plasma pharmacokinetics after single intragastric administration in rats; format: in vivo, SD rat; settings: male, rat, plasma, po; rats ♂, single gavage 10 mg/kg, Mean ± SD
measured.metric: CL/F (mL/min/kg)

cpd.smiles	measured.metric	number
CC(C)(O)[C@@H]1CC[C@](C)([C@H]2[C@@H](O)C[C@@]3(C)[C@@H]4C[C@H](O)[C@H]5C(C)(C)C(F)(F)CC[C@@]56C[C@@]46CC[C@]23C)O1	CL/F	208

* * *

assay: Plasma pharmacokinetics after single intragastric administration in rats; assay type: in vivo, SD rat; details: male, rat, plasma, po; rats ♂, single gavage 10 mg/kg, Mean ± SD; read-out: MRT0-∞

cpd.smiles	MRT inf, h
CC(C)(O)[C@@H]1CC[C@](C)([C@H]2[C@@H](O)C[C@@]3(C)[C@@H]4C[C@H](O)[C@H]5C(C)(C)C(F)(F)CC[C@@]56C[C@@]46CC[C@]23C)O1	3.78

Sourced from patent US20220177511A1
